- Method: general mammalian cell viability loss – inhibitor set, cherry-pick, set 2, cytotoxicity control for miR-122 modulator project, dose response (AID 720697)
- Reported Conditions: HEK293T viability, CellTiter-Glo luminescence, 48 h; series mostly up to 26 µM
Entries with a potency or affinity are not part of this list. Records with an inconclusive call do not appear. The source made the active and inactive calls.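 The calls were made as follows: active = signal loss with fitted half-maximal concentration at or below twice the top valid tested dose in every test run; inconclusive = runs disagree, flat 30 to 70% signal loss, or poor fit; inactive = all runs flat, opposite direction, or potency beyond limit.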
Outcome Measure: activity change, negative = cytotoxicity

// below: answered molecules
* C[C@@H]1CN([C@H](C)CO)S(=O)(=O)c2ccc(C3=CCCC3)cc2O[C@@H]1CN(C)C(=O)c1cnccn1 | inactive
* Cc1cc(C)cc(Oc2ccc(NC(=O)C3CC=CCC3C(=O)O)cc2)c1 (stereo not drawn) | inactive
* CN1C(=O)c2cc(NC(=O)c3cccc(F)c3)ccc2OC[C@@H]2O[C@H](CC(=O)O)CC[C@@H]21 | inactive
* COC(=O)C[C@H]1CC[C@H]2[C@@H](COc3ccc(NC(=O)Nc4c(C)noc4C)cc3C(=O)N2C)O1 | inactive
* CNC(=O)C[C@@H]1CC[C@@H]2[C@@H](COc3ccc(NC(=O)Cc4cccs4)cc3C(=O)N2C)O1 | inactive

Supply reported activity change, negative = cytotoxicity belonging to this molecule: CNC(=O)C[C@H]1CC[C@H]2[C@@H](COc3ccc(NC(=O)c4cccc(OC)c4)cc3C(=O)N2C)O1 inactive

Supply reported activity change, negative = cytotoxicity belonging to this molecule: COc1cccc(CNC(=O)C[C@H]2CC[C@@H]3[C@@H](COc4ccc(NC(C)=O)cc4C(=O)N3C)O2)c1 inactive

Supply reported activity change, negative = cytotoxicity belonging to this molecule: OCc1ccc(-c2nn(Cc3ccccc3)c3ccccc23)o1 inactive
